METRIC: melting point

Example compounds with recorded melting point:
>>> df
                                   compound         metric  recorded_value
0  CN(C)S(=O)(=O)N1CCC(C2c3ncc(Br)cc3CCc3cc(Cl)cc(Cl)c32)CC1 (single isomer, unassigned; (+))  melting point   202 to 203 °C
1  O=S(=O)(CC(F)(F)F)N1CCC(C2c3ncc(Br)cc3CCc3cc(Cl)cc(Br)c32)CC1 (single isomer, unassigned; (+))  melting point   174 to 175 °C

Exercise: Note melting point for the compound shown: CC(C)S(=O)(=O)N1CCC(C2c3ncc(Br)cc3CCc3cc(Cl)cc(Br)c32)CC1 (single isomer, unassigned; (+))
Solution: 203 to 205 °C

Exercise: Note melting point for the compound shown: NS(=O)(=O)N1CCC(C2c3ncc(Br)cc3CCc3cc(Cl)cc(Cl)c32)CC1 (single isomer, unassigned; (+))
Solution: 133 to 134 °C

Exercise: Note melting point for the compound shown: CCS(=O)(=O)N1CCC(C2c3ncc(Br)cc3CCc3cc(Cl)cc(Br)c32)CC1 (single isomer, unassigned; (+))
Solution: 202 to 203 °C

Exercise: Note melting point for the compound shown: CCCS(=O)(=O)N1CCC(C2c3ncc(Br)cc3CCc3cc(Cl)cc(Br)c32)CC1 (single isomer, unassigned; (+))
Solution: 97 to 98 °C

Exercise: Note melting point for the compound shown: O=S(=O)(N1CCC(C2c3ncc(Br)cc3CCc3cc(Cl)cc(Br)c32)CC1)C(F)(F)F (single isomer, unassigned; (+))
Solution: 111 to 112 °C

----------
METRIC: melting point

>>> print(df.to_string())
                                   molecule         metric  recorded_value
0  CS(=O)(=O)N1CCC(C2c3ncc(Br)cc3CCc3cc(Cl)cc(Cl)c32)CC1 (single isomer, unassigned; (+))  melting point   160 to 163 °C

Exercise: Note melting point for the molecule shown: CS(=O)(=O)N1CCC(C2c3ncc(Br)cc3CCc3cc(Cl)cc(Br)c32)CC1 (single isomer, unassigned; (+))
Solution: 216 to 217 °C

Exercise: Note melting point for the molecule shown: CCCCS(=O)(=O)N1CCC(C2c3ncc(Br)cc3CCc3cc(Cl)cc(Br)c32)CC1 (single isomer, unassigned; (+))
Solution: 73 to 74 °C

----------
# Tested on: Ras processing in COS cells
# ASSAY_NOTES: Cell-based assay: COS cells activity, inhibition of Ras processing
METRIC: pIC50
Hey, just a heads up that pIC50 is the negative log base 10 of the concentration in molar.

>>> print(df.to_string())
                                   compound  metric  recorded_value
0  CS(=O)(=O)N1CCC(C2c3ncc(Br)cc3CCc3cc(Cl)cc(Br)c32)CC1 (single isomer, unassigned; (+))   pIC50            7.82

Next up:
Exercise: Note pIC50 for the compound shown: CS(=O)(=O)N1CCC(C2c3ncc(Br)cc3CCc3cc(Cl)cc(Cl)c32)CC1 (single isomer, unassigned; (+))
Solution: 6.38

----------
# SYSTEM_UNDER_TEST: partially purified rat brain farnesyl protein transferase (FPT) (Rattus norvegicus, UniProt Q02293+Q04631)
# Construct: partially purified rat brain farnesyl protein transferase (FPT)
# ASSAY_NOTES: In vitro enzyme assay: inhibition of Ras-CVLS farnesylation by farnesyl protein transferase (H-ras FPT)
METRIC: IC50 (nM)
# unit: nM | format: bare number

Exercise: Note IC50 for the compound shown: O=S(=O)(c1ccccc1)N1CCC([C@H]2c3ncc(Br)cc3CCc3cc(Cl)cc(Br)c32)CC1
Solution: 179

Exercise: Note IC50 for the compound shown: CCCCS(=O)(=O)N1CCC(C2c3ncc(Br)cc3CCc3cc(Cl)cc(Br)c32)CC1 (single isomer, unassigned; (+))
Solution: 320

Exercise: Note IC50 for the compound shown: Cn1cnc(S(=O)(=O)N2CCC([C@H]3c4ncc(Br)cc4CCc4cc(Cl)cc(Br)c43)CC2)c1
Solution: 85

Exercise: Note IC50 for the compound shown: O=S(=O)(N1CCC(C2c3ncc(Br)cc3CCc3cc(Cl)cc(Br)c32)CC1)C(F)(F)F (single isomer, unassigned; (+))
Solution: 34

Exercise: Note IC50 for the compound shown: CS(=O)(=O)N1CCC(C2c3ncc(Br)cc3CCc3cc(Cl)cc(Cl)c32)CC1 (single isomer, unassigned; (+))
Solution: 8

Exercise: Note IC50 for the compound shown: CCS(=O)(=O)N1CCC(C2c3ncc(Br)cc3CCc3cc(Cl)cc(Br)c32)CC1 (single isomer, unassigned; (+))
Solution: 15.4

Exercise: Note IC50 for the compound shown: CC(C)S(=O)(=O)N1CCC(C2c3ncc(Br)cc3CCc3cc(Cl)cc(Br)c32)CC1 (single isomer, unassigned; (+))
Solution: 110

Exercise: Note IC50 for the compound shown: O=S(=O)(c1ccc(-c2ccon2)s1)N1CCC([C@H]2c3ncc(Br)cc3CCc3cc(Cl)cc(Br)c32)CC1
Solution: 276

Exercise: Note IC50 for the compound shown: O=S(=O)(CC(F)(F)F)N1CCC(C2c3ncc(Br)cc3CCc3cc(Cl)cc(Br)c32)CC1 (single isomer, unassigned; (+))
Solution: 89

Exercise: Note IC50 for the compound shown: CS(=O)(=O)N1CCC(C2c3ncc(Br)cc3CCc3cc(Cl)cc(Br)c32)CC1 (single isomer, unassigned; (+))
Solution: 7

----------
# SYSTEM_UNDER_TEST: partially purified rat brain farnesyl protein transferase (FPT) (Rattus norvegicus, UniProt Q02293+Q04631)
# Construct: partially purified rat brain farnesyl protein transferase (FPT)
# ASSAY_NOTES: In vitro enzyme assay: inhibition of Ras-CVLS farnesylation by farnesyl protein transferase (H-ras FPT)
Listed here are compounds together with their documented IC50.

In [3]: df
Out[3]:
                                   compound  metric  recorded_value
0  C=CS(=O)(=O)N1CCC(C2c3ncc(Br)cc3CCc3cc(Cl)cc(Br)c32)CC1 (single isomer, unassigned; (+)) [Example 11]    IC50           32 nM

Exercise: Note IC50 for the compound shown: NS(=O)(=O)N1CCC(C2c3ncc(Br)cc3CCc3cc(Cl)cc(Cl)c32)CC1 (single isomer, unassigned; (+)) [Example 3]
Solution: 26 nM

Exercise: Note IC50 for the compound shown: CN(C)S(=O)(=O)N1CCC(C2c3ncc(Br)cc3CCc3cc(Cl)cc(Cl)c32)CC1 (single isomer, unassigned; (+)) [Example 2]
Solution: 164 nM

Exercise: Note IC50 for the compound shown: CCCS(=O)(=O)N1CCC(C2c3ncc(Br)cc3CCc3cc(Cl)cc(Br)c32)CC1 (single isomer, unassigned; (+)) [Example 6]
Solution: 32 nM
